Dmax values by entry
# target: EML4-ALK (Homo sapiens, UniProt Q9UM73)
# Construct: endogenous in cells; host or cells: H3122 (NSCLC), single-cell clone after CRISPR knock-in of HiBit; the other entry of the earlier key: EML4 (Q9HC35, Echinoderm microtubule-associated protein-like 4)
# Sequence (Q9UM73 with tags, fused parts or gaps): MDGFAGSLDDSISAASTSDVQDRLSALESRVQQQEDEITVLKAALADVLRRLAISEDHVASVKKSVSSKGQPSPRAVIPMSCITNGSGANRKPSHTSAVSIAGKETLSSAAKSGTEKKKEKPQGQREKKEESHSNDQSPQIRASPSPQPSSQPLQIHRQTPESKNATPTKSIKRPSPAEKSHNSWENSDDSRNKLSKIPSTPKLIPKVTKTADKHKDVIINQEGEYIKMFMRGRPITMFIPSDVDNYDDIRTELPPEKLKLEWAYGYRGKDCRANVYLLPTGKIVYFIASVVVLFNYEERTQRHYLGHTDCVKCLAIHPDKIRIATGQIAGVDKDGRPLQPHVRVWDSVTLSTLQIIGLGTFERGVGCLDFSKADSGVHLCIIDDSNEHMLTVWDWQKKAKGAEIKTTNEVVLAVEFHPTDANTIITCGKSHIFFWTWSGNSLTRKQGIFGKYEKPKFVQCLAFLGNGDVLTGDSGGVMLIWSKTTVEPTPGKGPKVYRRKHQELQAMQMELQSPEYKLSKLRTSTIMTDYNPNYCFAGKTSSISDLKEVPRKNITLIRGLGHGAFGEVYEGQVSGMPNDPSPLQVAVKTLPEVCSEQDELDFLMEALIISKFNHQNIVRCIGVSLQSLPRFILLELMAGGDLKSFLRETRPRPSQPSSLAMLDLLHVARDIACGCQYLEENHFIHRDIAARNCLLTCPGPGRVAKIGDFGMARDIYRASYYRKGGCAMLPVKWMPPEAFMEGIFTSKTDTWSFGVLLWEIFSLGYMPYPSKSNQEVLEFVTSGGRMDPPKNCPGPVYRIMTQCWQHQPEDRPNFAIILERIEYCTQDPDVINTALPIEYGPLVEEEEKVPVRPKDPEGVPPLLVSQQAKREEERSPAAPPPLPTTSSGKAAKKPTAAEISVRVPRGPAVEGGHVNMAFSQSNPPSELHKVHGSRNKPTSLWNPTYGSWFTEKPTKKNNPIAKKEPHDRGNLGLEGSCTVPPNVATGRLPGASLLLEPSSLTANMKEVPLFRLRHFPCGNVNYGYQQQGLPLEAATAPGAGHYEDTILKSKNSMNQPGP
# experimental-protocol: EML4-ALK HiBit degradation assay in CRISPR-tagged H3122 cells (Nano-Glo HiBit Lytic Detection)
# Format: cell-based
# measurement-context: NCI-H3122, Table 1, second Dmax column; H3122 EML4-ALK-HiBit, 16 hours; read-out: Degradation Dmax
Hi! Could you send only the number? It should be in %, unit omitted.

Consider the compound shown here: CC[C@@H](NC(=O)C1CC(NC(=O)CCCCCCC(=O)N(C)CCc2cc(OC)c(Nc3ncc(Cl)c(Nc4ccccc4S(=O)(=O)C(C)C)n3)cc2C)CN1C(=O)[C@@H](NC(=O)[C@H](C)NC)C(C)(C)C)c1ccccc1 (stereo partly drawn) What is its recorded Dmax?
102

Could you tell me which Dmax is on file for `COc1cc(CCNCCCCCOc2cc(-c3scnc3C)ccc2[C@H](C)NC(=O)[C@@H]2C[C@@H](O)CN2C(=O)[C@@H](NC(C)=O)C(C)(C)C)c(C)cc1Nc1ncc(Cl)c(Nc2ccccc2S(=O)(=O)C(C)C)n1` ?
68.2

Dear colleague, I am looking for the recorded Dmax of the following compound: `COc1cc(CCNCCCCCSC(C)(C)[C@H](NC(C)=O)C(=O)N2C[C@H](O)C[C@H]2C(=O)N[C@@H](C)c2ccc(-c3scnc3C)cc2)c(C)cc1Nc1ncc(Cl)c(Nc2ccccc2S(=O)(=O)C(C)C)n1`
108

Which Dmax reading was recorded for the compound COc1cc(CCN(C)C(=O)CCCCCCCCNC(=O)COc2cccc3c2C(=O)N(C2CCC(=O)NC2=O)C3=O)c(C)cc1Nc1ncc(Cl)c(Nc2ccccc2S(=O)(=O)C(C)C)n1 (stereo not drawn) ?
44.8

Param item = `COc1cc(CCN(C)C(=O)CCCCCCC(=O)N[C@H](C(=O)N2C[C@H](O)C[C@H]2C(=O)N[C@@H](C)c2ccc(-c3scnc3C)cc2)C(C)(C)C)c(C)cc1Nc1ncc(Cl)c(Nc2ccccc2S(=O)(=O)C(C)C)n1` ; retrieve measured Dmax.
41.6

I am curious: what Dmax value has been reported for COc1cc(CCN(C)C(=O)CCCCCCCCNc2cccc3c2C(=O)N(C2CCC(=O)NC2=O)C3=O)c(C)cc1Nc1ncc(Cl)c(Nc2ccccc2S(=O)(=O)C(C)C)n1 (stereo not drawn) ?
38.4

Look up Dmax for this compound: `COc1cc(CCN(C)CCCCCOc2cc(-c3scnc3C)ccc2[C@H](C)NC(=O)[C@@H]2C[C@@H](O)CN2C(=O)[C@@H](NC(C)=O)C(C)(C)C)c(C)cc1Nc1ncc(Cl)c(Nc2ccccc2S(=O)(=O)C(C)C)n1`
68.2

Dmax for `COc1cc(CCNCCOCCOCCOCCC(=O)N[C@H](C(=O)N2C[C@H](O)C[C@H]2C(=O)N[C@@H](C)c2ccc(-c3scnc3C)cc2)C(C)(C)C)c(C)cc1Nc1ncc(Cl)c(Nc2ccccc2S(=O)(=O)C(C)C)n1` ?
95.6

Given COc1cc(CCNCCOCCOCCC(=O)N[C@H](C(=O)N2C[C@H](O)CC2C(=O)N[C@@H](C)c2ccc(-c3scnc3C)cc2)C(C)(C)C)c(C)cc1Nc1ncc(Cl)c(Nc2ccccc2S(=O)(=O)C(C)C)n1 (stereo partly drawn) , state its recorded Dmax.
34.5

###

# target: EML4-ALK (Homo sapiens)
# Construct: endogenous in cells; host or cells: H3122 (NSCLC), single-cell clone after CRISPR knock-in of HiBit; the other entry of the earlier key: EML4 (Q9HC35, Echinoderm microtubule-associated protein-like 4)
# experimental-protocol: EML4-ALK HiBit degradation assay in CRISPR-tagged H3122 cells (Nano-Glo HiBit Lytic Detection)
# Type: cell-based
# measurement-context: Table 1; average DC50; read-out: Degradation Avg. DC50
This listing pairs molecules with measured DC50.
Kindly answer with a numeric value in nM, unit omitted.

Which value of DC50 has been reported for COc1cc(CCN(C)C(=O)CCCNc2cccc3c2C(=O)N(C2CCC(=O)NC2=O)C3=O)c(C)cc1Nc1ncc(Cl)c(Nc2ccccc2S(=O)(=O)C(C)C)n1 (centres unmarked) [compound 1] in the records?
32

# DC50 lookup, item CN[C@@H](C)C(=O)N[C@H](C(=O)N1Cc2cc(OCCCCCNCCc3cc(OC)c(Nc4ncc(Cl)c(Nc5ccccc5S(=O)(=O)C(C)C)n4)cc3C)ccc2C[C@H]1C(=O)N[C@H]1CCCc2ccccc21)C(C)(C)C [Compound 39]
293

# query: DC50 of entry CC[C@@H](NC(=O)C1CC(NC(=O)CCCCCCC(=O)N(C)CCc2cc(OC)c(Nc3ncc(Cl)c(Nc4ccccc4S(=O)(=O)C(C)C)n3)cc2C)CN1C(=O)[C@@H](NC(=O)[C@H](C)NC)C(C)(C)C)c1ccccc1 (some centres unmarked) [Compound 55]
492

What does the record list as DC50 for COc1cc(CCNCCCCCOc2cc(-c3scnc3C)ccc2[C@H](C)NC(=O)[C@@H]2C[C@@H](O)CN2C(=O)[C@@H](NC(C)=O)C(C)(C)C)c(C)cc1Nc1ncc(Cl)c(Nc2ccccc2S(=O)(=O)C(C)C)n1 [Compound 53] ?
93

Quick check: DC50 of COc1cc(CCN(C)C(=O)CCCCCNc2cccc3c2C(=O)N(C2CCC(=O)NC2=O)C3=O)c(C)cc1Nc1ncc(Cl)c(Nc2ccccc2S(=O)(=O)C(C)C)n1 (centres unmarked) [compound 2] ?
57

###

# target: EML4-ALK (Homo sapiens, UniProt Q9UM73)
# Construct: endogenous in cells; host or cells: H3122 (NSCLC), single-cell clone after CRISPR knock-in of HiBit; the other entry of the earlier key: EML4 (Q9HC35, Echinoderm microtubule-associated protein-like 4)
# experimental-protocol: EML4-ALK HiBit degradation assay in CRISPR-tagged H3122 cells (Nano-Glo HiBit Lytic Detection)
# Format: cell-based
# measurement-context: Table 2, second DC50 column; H3122 EML4-ALK-HiBit, 16 hours; read-out: Degradation DC50
# Procedure: NSCLC cell line H3122 was subjected to CRISPR to express EML4-ALK with HiBit-tag on its c-terminal. Single-cell clone was selected and expanded for the following assays that monitor endogenous EML4-ALK level in high throughput manner. […] HiBit signal was assessed using Nano-Glo® HiBit Lytic Detection System (Promega™). […] NSCLC cell line H3122 was subjected to CRISPR to express EML4-ALK with HiBit-tag on its c-terminus. […] HiBit signal was assessed using Nano-Glo® HiBit Lytic Detection System (Promega™). […]
assay-metric: log10 of DC50 (log10 of the value in nM)
Field: value | Transform: log10 | Quantity: DC50 | Unit: nM

Please look up its log10 of DC50: `CC[C@@H](NC(=O)[C@@H]1C[C@H](NC(=O)CCCCCCC(=O)N(C)CCc2cc(OC)c(Nc3ncc(Cl)c(Nc4ccccc4P(C)(C)=O)n3)cc2C)CN1C(=O)[C@@H](NC(=O)[C@H](C)NC)C(C)(C)C)c1ccccc1`
2.68

Others:
Entry COc1cc(CCNCCCCCSC(C)(C)C(NC(C)=O)C(=O)N2C[C@H](O)C[C@H]2C(=O)N[C@@H](C)c2ccc(-c3scnc3C)cc2)c(C)cc1Nc1ncc(Cl)c(Nc2ccccc2P(C)(C)=O)n1 (stereo partly drawn) : reported log10 of DC50 = ?
3.07

Sample `COc1cc(CCNCCCC(=O)N[C@H](C(=O)N2C[C@H](O)C[C@H]2C(=O)N[C@@H](C)c2ccc(-c3scnc3C)cc2)C(C)(C)C)c(C)cc1Nc1ncc(Cl)c(Nc2ccccc2P(C)(C)=O)n1` — what was its log10 of DC50?
3.56

What value of log10 of DC50 has been recorded for this entry: COc1cc(CCN(C)C(=O)CCCCCCCCNc2cccc3c2C(=O)N(C2CCC(=O)NC2=O)C3=O)c(C)cc1Nc1ncc(Cl)c(Nc2ccccc2P(C)(C)=O)n1 (stereo not drawn)
2.83

Please give the measured log10 of DC50 for this compound: COc1cc(CCN(C)C(=O)CCCC#Cc2cccc3c2C(=O)N(C2CCC(=O)NC2=O)C3=O)c(C)cc1Nc1ncc(Cl)c(Nc2ccccc2P(C)(C)=O)n1 (stereo not drawn)
3.92

Query: log10 of DC50; subject: `COc1cc(CCN(C)C(=O)CCOCCC(=O)N[C@H](C(=O)N2C[C@H](O)C[C@H]2C(=O)N[C@@H](C)c2ccc(-c3scnc3C)cc2)C(C)(C)C)c(C)cc1Nc1ncc(Cl)c(Nc2ccccc2P(C)(C)=O)n1`
2.18

###

A collection of compounds and their measured Dmax
# target: EML4-ALK (Homo sapiens)
# Construct: endogenous in cells; host or cells: H3122 (NSCLC), single-cell clone after CRISPR knock-in of HiBit; the other entry of the earlier key: EML4 (Q9HC35, Echinoderm microtubule-associated protein-like 4)
# experimental-protocol: EML4-ALK HiBit degradation assay in CRISPR-tagged H3122 cells (Nano-Glo HiBit Lytic Detection)
# Format: cell-based
# measurement-context: NCI-H3122, Table 2, first Dmax column; H3122 EML4-ALK-HiBit, 16 hours; read-out: Degradation Dmax
Report field: quantity (unit follows the number).

Consider the compound shown here: COc1cc(CCN(C)C(=O)CCCCCC#Cc2cccc3c2C(=O)N(C2CCC(=O)NC2=O)C3=O)c(C)cc1Nc1ncc(Cl)c(Nc2ccccc2P(C)(C)=O)n1 (stereo not drawn) What is its recorded Dmax?
27.8%

So what's the measured Dmax for this one? COc1cc(CCN(C)C(=O)CCCCCCCCNC(=O)COc2cccc3c2C(=O)N(C2CCC(=O)NC2=O)C3=O)c(C)cc1Nc1ncc(Cl)c(Nc2ccccc2P(C)(C)=O)n1 (stereo not drawn)
33.7%

For the next question, use this compound.
Entry COc1cc(CCN(C)C(=O)CCCC#Cc2cccc3c2C(=O)N(C2CCC(=O)NC2=O)C3=O)c(C)cc1Nc1ncc(Cl)c(Nc2ccccc2P(C)(C)=O)n1 (stereo not drawn) has what Dmax?
29.5%

// provenance: patent US20230158157A1
